- experiment: physchem
reportedProperty: logP at 3 h

[[record]]
molecule = "Cn1cc(C[C@@H](N)C(=O)[O][Pt]([NH2])([NH2])([Cl])([Cl])[O]C(=O)[C@H](N)Cc2cn(C)c3ccccc23)c2ccccc21 (mixture of isomers) [Compound 1, cis,cis,trans-[Pt(NH3)2Cl2(O2C-D-1-MT)2]]"
valuereported = -0.21


----------
- experiment: Water-octanol partition coefficient (Log P), shake-flask method and GFAAS
- measurementContext: octanol/PBS
Listing of recorded logP at 3 h by entry.
reportedProperty: logP at 3 h

[[record]]
molecule = "Cn1cc(C[C@@H](N)C(=O)O)c2ccccc21"
valuereported = -2.98

[[record]]
molecule = "CCCCCCCCCCCCCCCCNC(=O)[O][Pt]([NH2])([NH2])([Cl])([Cl])[O]C(=O)CCC(=O)NCCOC(=O)[C@H](N)Cc1cn(C)c2ccccc12 (mixture of isomers)"
valuereported = 1.35


----------
- experiment: Whole human blood stability test
- Assay type: in vitro ADME
- measurementContext: fresh whole human blood; whole human blood, 60 μM, 37° C.; read-out: t1/2 in human blood (converted)
reportedProperty: half-life at 60 µM (h)

[[record]]
compound = "CCCCCCCCCCCCCCCCNC(=O)[O][Pt]([NH2])([NH2])([Cl])([Cl])[O]C(=O)CCC(=O)NCCOC(=O)[C@H](N)Cc1cn(C)c2ccccc12 (mixture of isomers)"
reportedproperty = "half-life at 60 µM"
valuereported = 2.2

